Attribution: ChEMBL document CHEMBL1136438

Quick list: pKi per entry.
# target-of-assay: Hepatitis C virus serine protease, NS3/NS4A (Hepatitis C virus, UniProt D2K2A8+A3EZI9)
# Sequence (D2K2A8 whole entry): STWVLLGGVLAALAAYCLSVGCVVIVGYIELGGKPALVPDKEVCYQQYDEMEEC
# Sequence (A3EZI9 whole entry): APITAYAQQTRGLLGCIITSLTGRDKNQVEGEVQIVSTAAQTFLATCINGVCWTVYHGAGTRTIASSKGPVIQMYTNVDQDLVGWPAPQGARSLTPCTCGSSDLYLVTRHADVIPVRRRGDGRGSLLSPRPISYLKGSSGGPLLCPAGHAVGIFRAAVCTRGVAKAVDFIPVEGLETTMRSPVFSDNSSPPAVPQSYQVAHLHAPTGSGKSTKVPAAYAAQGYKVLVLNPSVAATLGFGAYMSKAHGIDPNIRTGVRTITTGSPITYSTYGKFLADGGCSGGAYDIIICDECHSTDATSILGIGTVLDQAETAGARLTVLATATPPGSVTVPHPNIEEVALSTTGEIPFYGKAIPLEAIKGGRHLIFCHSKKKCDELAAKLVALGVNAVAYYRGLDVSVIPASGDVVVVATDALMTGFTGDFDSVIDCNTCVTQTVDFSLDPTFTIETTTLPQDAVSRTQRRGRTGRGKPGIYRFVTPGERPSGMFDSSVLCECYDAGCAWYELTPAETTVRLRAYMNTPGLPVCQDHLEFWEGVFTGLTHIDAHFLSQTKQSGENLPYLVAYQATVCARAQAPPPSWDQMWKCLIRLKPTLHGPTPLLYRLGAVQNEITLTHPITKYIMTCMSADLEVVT
# protocol-notes: Inhibition of HCV (Hepatitis C Virus) NS3-4A protease.
*1 amine or outer side, *2 acyl side, *3 side chain or, on linkers, in order; H or OH if unused. Where a SMILES comes first, the peptide text is derived from it. Side-chain parts run from the residue outwards. [ ]: non-standard residue; d: D form. The star is where a group is joined. Pro(4R-OPh) = O=C(O)[C@@H]1C[C@@H](Oc2ccccc2)CN1; CH2(1-naphthyl) = c1ccc2c(C*)cccc2c1; Adipoyl = O=C(CCCCC(=O)[*:2])[*:1]; 1Naphthoyl = O=C(c1cccc2ccccc12)*; 2Naphthoyl = O=C(c1ccc2ccccc2c1)*; Pyrazinecarbonyl = O=C(c1cnccn1)*; Hyp = O=C(O)[C@@H]1C[C@@H](O)CN1; X1 = c1ccc2cc(C*)ccc2c1; X2 = Clc1ccc(Cl)c(N*)c1; X4 = COc1ccc(OC)c(N*)c1; 2Abz = Nc1ccccc1C(=O)O; Abu = CC[C@H](N)C(=O)O; X3 = c1ccc2c(c1)CCCN2*; CO = O=C([*:1])[*:2]; Bz = O=C(c1ccccc1)*
pKi field: float, defined as -log10 of concentration (mol/L).

Observed pKi, Hepatitis C virus serine protease, NS3/NS4A (Hepatitis C virus, UniProt D2K2A8+A3EZI9), CC[C@@H](C=O)NC(=O)[C@@H]1C[C@@H](Oc2ccccc2)CN1C(=O)[C@@H](NC(=O)[C@@H](NC(=O)c1cnccn1)C(C)C)C(C)C (Pyrazinecarbonyl-VV[Pro(4R-OPh)][Abu]-aldehyde) : 5.41

Tested on Hepatitis C virus serine protease, NS3/NS4A (Hepatitis C virus, UniProt D2K2A8+A3EZI9): CC[C@@H](C=O)NC(=O)[C@@H]1C[C@@H](OC(=O)c2cccc3ccccc23)CN1C(=O)[C@@H](NC(=O)[C@@H](NC(=O)c1cnccn1)C(C)C)C(C)C (Pyrazinecarbonyl-VV[Hyp](1Naphthoyl)[Abu]-aldehyde) . Observed pKi: 5.72

pKi of CC[C@@H](C=O)NC(=O)[C@@H]1C[C@@H](Oc2cccc3ccccc23)CN1C(=O)[C@@H](NC(=O)[C@@H](NC(=O)c1cnccn1)C(C)C)C(C)C , assay on Hepatitis C virus serine protease, NS3/NS4A (Hepatitis C virus, UniProt D2K2A8+A3EZI9), is 5.68

The reported Hepatitis C virus serine protease, NS3/NS4A (Hepatitis C virus, UniProt D2K2A8+A3EZI9) pKi of CC[C@@H](C=O)NC(=O)[C@@H]1C[C@@H](OC(=O)Nc2cc(OC)ccc2OC)CN1C(=O)[C@@H](NC(=O)[C@@H](NC(=O)c1cnccn1)C(C)C)C(C)C (Pyrazinecarbonyl-VV[Hyp]([CO-X4])[Abu]-aldehyde) is 5.10

Entry CC[C@@H](C=O)NC(=O)[C@@H]1C[C@@H](OCc2ccc3ccccc3c2)CN1C(=O)[C@@H](NC(=O)[C@@H](NC(=O)c1cnccn1)C(C)C)C(C)C (Pyrazinecarbonyl-VV[Hyp](X1)[Abu]-aldehyde) ; assay system Hepatitis C virus serine protease, NS3/NS4A (Hepatitis C virus, UniProt D2K2A8+A3EZI9); pKi recorded at 5.77

Entry CC[C@@H](C=O)NC(=O)[C@@H]1C[C@@H](OC(=O)Nc2cc(Cl)ccc2Cl)CN1C(=O)[C@@H](NC(=O)[C@@H](NC(=O)c1cnccn1)C(C)C)C(C)C (Pyrazinecarbonyl-VV[Hyp]([CO-X2])[Abu]-aldehyde) , Hepatitis C virus serine protease, NS3/NS4A (Hepatitis C virus, UniProt D2K2A8+A3EZI9) data, pKi value: 5.49

Known value: Hepatitis C virus serine protease, NS3/NS4A (Hepatitis C virus, UniProt D2K2A8+A3EZI9) pKi of the molecule CC[C@@H](C=O)NC(=O)[C@@H]1C[C@@H](OC(=O)N2CCCc3ccccc32)CN1C(=O)[C@@H](NC(=O)[C@@H](NC(=O)c1cnccn1)C(C)C)C(C)C (Pyrazinecarbonyl-VV[Hyp]([CO-X3])[Abu]-aldehyde) equals 6.05

Bench note, Hepatitis C virus serine protease, NS3/NS4A (Hepatitis C virus, UniProt D2K2A8+A3EZI9): entry CC[C@@H](C=O)NC(=O)[C@@H]1C[C@@H](OC(=O)c2ccc3ccccc3c2)CN1C(=O)[C@@H](NC(=O)[C@@H](NC(=O)CCCCC(=O)O)C(C)C)C(C)C (Adipoyl-VV[Hyp](2Naphthoyl)[Abu]-aldehyde) , its pKi = 6.96

Kindly note: Hepatitis C virus serine protease, NS3/NS4A (Hepatitis C virus, UniProt D2K2A8+A3EZI9), CC[C@@H](C=O)NC(=O)[C@@H]1C[C@@H](OCc2cccc3ccccc23)CN1C(=O)[C@@H](NC(=O)[C@@H](NC(=O)c1cnccn1)C(C)C)C(C)C (Pyrazinecarbonyl-VV[Hyp](CH2(1-naphthyl))[Abu]-aldehyde) , pKi value reported: 5.54

Note to self: pKi of CC[C@@H](C=O)NC(=O)[C@@H]1C[C@@H](OC(=O)c2ccccc2)CN1C(=O)[C@@H](NC(=O)[C@@H](NC(=O)c1cnccn1)C(C)C)C(C)C (Pyrazinecarbonyl-VV[Hyp](Bz)[Abu]-aldehyde) with Hepatitis C virus serine protease, NS3/NS4A (Hepatitis C virus, UniProt D2K2A8+A3EZI9) was 5.24

Summary line: CC[C@@H](C=O)NC(=O)[C@@H]1C[C@@H](Oc2ccc3ccccc3c2)CN1C(=O)[C@@H](NC(=O)[C@@H](NC(=O)c1cnccn1)C(C)C)C(C)C , Hepatitis C virus serine protease, NS3/NS4A (Hepatitis C virus, UniProt D2K2A8+A3EZI9), reported pKi = 5.13

Record CC[C@@H](C=O)NC(=O)[C@@H]1C[C@@H](OC(=O)Nc2ccccc2C(=O)OC)CN1C(=O)[C@@H](NC(=O)[C@@H](NC(=O)c1cnccn1)C(C)C)C(C)C (Pyrazinecarbonyl-VV[Hyp]([CO-2Abz-OMe])[Abu]-aldehyde) / Hepatitis C virus serine protease, NS3/NS4A (Hepatitis C virus, UniProt D2K2A8+A3EZI9), pKi recorded as 5.60
